Assign IC50 to each entry below.
test target: Nav1.6 (Homo sapiens, UniProt Q9UQD0)
Sequence (Q9UQD0 whole entry): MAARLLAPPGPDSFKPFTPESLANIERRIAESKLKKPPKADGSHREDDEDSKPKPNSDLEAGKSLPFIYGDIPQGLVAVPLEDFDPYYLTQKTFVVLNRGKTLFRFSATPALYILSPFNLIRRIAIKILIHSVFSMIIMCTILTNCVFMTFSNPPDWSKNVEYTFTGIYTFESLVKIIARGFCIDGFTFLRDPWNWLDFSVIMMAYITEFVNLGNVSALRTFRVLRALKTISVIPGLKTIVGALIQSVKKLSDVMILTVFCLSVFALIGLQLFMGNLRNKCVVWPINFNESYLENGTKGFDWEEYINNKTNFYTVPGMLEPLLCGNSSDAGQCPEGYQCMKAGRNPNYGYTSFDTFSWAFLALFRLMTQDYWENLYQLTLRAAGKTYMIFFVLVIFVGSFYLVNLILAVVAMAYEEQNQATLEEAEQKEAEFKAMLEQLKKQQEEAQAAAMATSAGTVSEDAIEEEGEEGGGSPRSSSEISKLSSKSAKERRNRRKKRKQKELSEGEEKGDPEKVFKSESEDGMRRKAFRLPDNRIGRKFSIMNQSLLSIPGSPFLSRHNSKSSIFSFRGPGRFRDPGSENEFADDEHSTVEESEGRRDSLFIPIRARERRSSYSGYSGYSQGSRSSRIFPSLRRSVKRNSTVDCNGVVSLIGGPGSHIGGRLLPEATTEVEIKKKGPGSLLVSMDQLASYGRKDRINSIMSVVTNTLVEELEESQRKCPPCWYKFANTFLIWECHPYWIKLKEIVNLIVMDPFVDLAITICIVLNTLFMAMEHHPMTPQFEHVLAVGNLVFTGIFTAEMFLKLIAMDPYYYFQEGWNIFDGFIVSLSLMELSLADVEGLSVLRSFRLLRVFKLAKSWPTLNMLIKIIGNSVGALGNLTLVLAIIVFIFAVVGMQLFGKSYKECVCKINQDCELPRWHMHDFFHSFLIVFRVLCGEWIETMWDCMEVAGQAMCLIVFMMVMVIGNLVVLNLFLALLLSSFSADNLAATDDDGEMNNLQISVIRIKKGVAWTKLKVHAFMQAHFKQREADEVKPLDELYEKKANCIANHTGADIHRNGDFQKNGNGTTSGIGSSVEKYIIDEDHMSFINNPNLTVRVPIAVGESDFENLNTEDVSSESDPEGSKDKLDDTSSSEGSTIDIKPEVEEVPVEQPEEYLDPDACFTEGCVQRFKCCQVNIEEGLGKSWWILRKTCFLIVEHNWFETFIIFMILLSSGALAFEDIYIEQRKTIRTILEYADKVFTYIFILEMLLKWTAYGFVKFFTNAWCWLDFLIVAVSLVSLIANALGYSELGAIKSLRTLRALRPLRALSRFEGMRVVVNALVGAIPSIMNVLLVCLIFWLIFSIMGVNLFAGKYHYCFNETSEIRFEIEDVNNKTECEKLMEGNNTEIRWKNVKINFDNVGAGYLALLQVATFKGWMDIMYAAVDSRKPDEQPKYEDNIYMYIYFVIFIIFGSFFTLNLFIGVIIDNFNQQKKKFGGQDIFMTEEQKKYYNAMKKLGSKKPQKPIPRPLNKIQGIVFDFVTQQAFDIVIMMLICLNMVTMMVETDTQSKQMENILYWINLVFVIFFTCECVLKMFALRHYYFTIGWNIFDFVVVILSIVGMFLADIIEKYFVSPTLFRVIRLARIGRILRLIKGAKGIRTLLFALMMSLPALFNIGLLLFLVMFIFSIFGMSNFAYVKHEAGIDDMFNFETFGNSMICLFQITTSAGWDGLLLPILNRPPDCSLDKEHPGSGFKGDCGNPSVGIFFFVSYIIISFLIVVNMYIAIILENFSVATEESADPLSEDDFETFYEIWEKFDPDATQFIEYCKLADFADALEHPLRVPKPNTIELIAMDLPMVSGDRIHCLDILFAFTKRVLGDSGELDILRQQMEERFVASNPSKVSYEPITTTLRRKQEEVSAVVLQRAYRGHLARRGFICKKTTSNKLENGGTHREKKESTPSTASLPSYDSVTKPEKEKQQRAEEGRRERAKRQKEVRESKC
test: Nav two-pulse protocol, IonWorks Quattro electrophysiology
Format: cell-based
experimental parameters: -120 mV to 0 mV, compound incubated 300 s, read-out: Nav1.6 inac
Procedure: Compound Plate Preparation Supplied compounds were sent as Assay Ready Plates, with 2 μL per well of compound in DMSO at 300× the final assay concentrations as described above and in the project proposal. All assay plates are stored at in a −80° C. freezer. On the day of the assay, 198 μL of external solution was added to the appropriate assay plate and mixed thoroughly. […] The parameters measured were the maximum inward current evoked on stepping to 0 mV from the 1st and 2nd pulse. […]

{"compound": "O=C(NCc1ccccn1)C1CCN(Cc2cccc(Oc3ccccc3F)c2)C1 (stereo not drawn) [Compound 14]", "reported metric": "IC50", "result": "> 5 µM"}

Give IC50 for each of the items listed below.
1. CC(C)COc1cccc(CN2CCC(c3noc(-c4ccc(F)cn4)n3)C2)c1 (stereo not drawn) [Compound 59]
2. CC1(C)Oc2ccc(CN3CCC(C(=O)NCc4ccccn4)C3)cc2O1 (stereo not drawn) [Compound 33]
3. COc1cccnc1-c1nc(C2CCN(Cc3cccc(OCC(C)C)c3)C2)no1 (stereo not drawn) [Compound 49]
4. O=C(NCc1ccccn1)C1(F)CCN(Cc2cccc(Oc3cccc(C(F)(F)F)c3)c2)C1 (stereo not drawn) [Compound 25]
5. COc1ccccc1Oc1cccc(CN2CCC(C(=O)NCc3ccccn3)C2)c1 (stereo not drawn) [Compound 7]
6. O=C(NCc1ccccn1)C1CCN(Cc2cccc(Oc3ccc(F)cc3)c2)C1 (stereo not drawn) [Compound 13]
7. Cc1ccc(Oc2cccc(CN3CCC(C(=O)NCc4ccccn4)C3)c2)cc1C (stereo not drawn) [Compound 10]
8. CCC(NC(=O)C1(C)CCN(Cc2cccc(Oc3ccccc3)c2)C1)c1cccnc1 (stereo not drawn) [Compound 103]

-- reply
1: > 5 µM; 2: 1 to 5 µM; 3: 1 to 5 µM; 4: 1 to 5 µM; 5: < 1 µM; 6: < 1 µM; 7: 1 to 5 µM; 8: > 5 µM

The values you see were collected from patent US9676757B2.
